Every entry's value here was drawn from ChEMBL document CHEMBL1961873.

Below, each entry is listed with its recorded inhibition.
# Measurement Target: Serine/threonine-protein kinase 3 (Homo sapiens);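 note: each value is the mean inhibition of MST2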
# Cond: at 1 µM
// note: answer is a bare numeric in %

# Test Smiles, Number
records = [
    ("CS(=O)(=O)Nc1ccc(-c2cc(-c3ccccc3)cc(C(N)=O)c2N)cc1", -0.76),
    ("O=C(Nc1n[nH]c2nnc(-c3cccnc3)cc12)C1CC1", -0.37),
    ("COc1cc(N2CCN(C(C)C)CC2)ccc1Nc1nc(Nc2cccc(F)c2C(=O)O)c2cc[nH]c2n1", 9.11),
    ("COc1cc(N2CCN(C(C)C)CC2)ccc1Nc1nc(Nc2cccc3ncccc23)c2cc[nH]c2n1", 0.57),
]

Now look at this entry.
Which inhibition value belongs to "COc1cc(Nc2ncc(-c3ccccc3)o2)cc(OC)c1" ? 6.9

###

# Measurement Target: Dual specificity tyrosine-phosphorylation-regulated kinase 2 (Homo sapiens) (UniProt Q92630);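 note: values are mean percent inhibition of DYRK2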
# Sequence (whole entry): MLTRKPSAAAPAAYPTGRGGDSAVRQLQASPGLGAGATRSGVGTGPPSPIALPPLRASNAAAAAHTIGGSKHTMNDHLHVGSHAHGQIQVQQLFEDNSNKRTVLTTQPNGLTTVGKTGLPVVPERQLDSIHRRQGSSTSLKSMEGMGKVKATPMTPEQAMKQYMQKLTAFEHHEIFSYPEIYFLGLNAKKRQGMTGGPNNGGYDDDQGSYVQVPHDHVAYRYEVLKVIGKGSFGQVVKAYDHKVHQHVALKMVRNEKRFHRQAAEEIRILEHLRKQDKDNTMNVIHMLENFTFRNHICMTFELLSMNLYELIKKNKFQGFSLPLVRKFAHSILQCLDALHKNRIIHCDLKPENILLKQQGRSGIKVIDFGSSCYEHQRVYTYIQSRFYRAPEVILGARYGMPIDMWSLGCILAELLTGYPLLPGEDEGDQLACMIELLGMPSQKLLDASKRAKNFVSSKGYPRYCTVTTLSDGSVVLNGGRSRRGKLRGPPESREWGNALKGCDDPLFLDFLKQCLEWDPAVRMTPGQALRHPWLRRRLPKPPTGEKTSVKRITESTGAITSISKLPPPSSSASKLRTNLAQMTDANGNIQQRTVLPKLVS
# Cond: at 0.1 µM
Outcome Measure: inhibition (%)
// note: answer is a bare numeric in %

Past entries and their recorded results:
# Compound, inhibition (%)
records = [
    ("CCS(=O)(=O)c1ccc(OC)c(Nc2ncc(-c3cccc(C(C)=O)c3)o2)c1", 2.2),
    ("COc1cc(N2CCN(C(C)C)CC2)ccc1Nc1nc(Nc2cccc3ncccc23)c2cc[nH]c2n1", -1.54),
    ("Fc1ccc(Nc2nccc(-c3c(-c4ccc(C(F)(F)F)cc4)nn4ncccc34)n2)cc1F", 2.31),
    ("CC1=C(C(=O)Nc2ccc3[nH]nc(C)c3c2)C(c2ccc(C(F)(F)F)cc2)CC(=O)N1 (centres undefined)", 2.28),
    ("NC(=O)c1ccc2c(-c3ccnc(NCCCO)n3)c(-c3ccc(F)cc3)nn2c1", 3.28),
    ("CCCNc1cccc(-n2ncc3c(N/N=C/c4ccncc4)ncnc32)c1", 2.85),
    ("COc1cc2c(cc1Nc1nc(Nc3cccc(F)c3C(N)=O)c3cc[nH]c3n1)N(C(=O)CN1CCN(C(C)C)CC1)CC2", 2.66),
    ("CN(c1ccc(NC(=O)NCCN2CCOCC2)cc1)c1ccnc(Nc2ccc(CS(C)(=O)=O)cc2)n1", 1.44),
]

Now look at this entry.
Which inhibition value belongs to "c1ccc(-c2n[nH]cc2-c2ccnc(-c3ccc(OCCn4ccnc4)cc3)c2)nc1" ? -0.06

###

Below, each entry is listed with its recorded inhibition.
# Measurement Target: cAMP-dependent protein kinase catalytic subunit alpha (Homo sapiens) (UniProt P17612);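 note: mean percent inhibition of PKA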
# Cond: at 1 µM
// note: answer is a bare numeric in %

Past entries and their recorded results:
# Test Smiles, Outcome Measure, Number
rows = [
    ("CCS(=O)(=O)c1ccc(OC)c(Nc2ncc(-c3cccc(F)c3)o2)c1", "inhibition", 6.7),
    ("NS(=O)(=O)c1ccc(N/N=C2\\C(=O)Nc3ccc(C(=O)NCc4ccncc4)cc32)cc1", "inhibition", 8.91),
    ("O=C(O[C@H]1CN[C@H](C#Cc2cc3ncnc(Nc4ccc5c(cnn5Cc5ccccc5)c4)c3s2)C1)N1CCOCC1", "inhibition", 1.15),
    ("NS(=O)(=O)c1ccc(N/N=C2\\C(=O)Nc3cccc(CCc4ccncc4)c32)cc1", "inhibition", 1.07),
    ("COc1ccc(Nc2ncc(-c3ccccc3)o2)cc1OC", "inhibition", 1.87),
    ("COc1ccc2ncn(-c3cc(O[C@H](C)c4ccccc4C(F)(F)F)c(C(N)=O)s3)c2c1", "inhibition", 0.52),
]

Which inhibition value belongs to "OCCCNc1nccc(-c2c(-c3ccc(F)cc3)nn3cc(C(F)(F)F)ccc23)n1" ? 1.41

Which inhibition value belongs to "CC1(C)CC(n2cnc(-c3ccc(F)cc3)c2-c2ccnc(N)n2)CC(C)(C)N1" ? 4.01

Which inhibition value belongs to "O=C(O[C@H]1CN[C@H](C#Cc2cc3ncnc(Nc4ccc5c(ccn5Cc5cc(F)ccc5F)c4)c3s2)C1)N1CCOCC1" ? 1.48

###

# Measurement Target: MAP kinase-activated protein kinase 2 (Homo sapiens);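 note: figures are mean inhibition values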
# Cond: at 0.1 µM
Below, each entry is listed with its recorded inhibition.
// note: answer is a bare numeric in %

Past entries and their recorded results:
# Test Smiles, Number
records = [
    ("CCS(=O)(=O)c1ccc(OC)c(Nc2ncc(-c3cccc(F)c3)o2)c1", 2.52),
    ("OCCCNc1nccc(-c2c(-c3ccc(F)cc3)nn3cc(C(F)(F)F)ccc23)n1", 0.94),
    ("CNC(=O)c1ncccc1Nc1nc(Nc2cc3c(cc2OC)CCCN3C(=O)CN(C)C)nc2[nH]ccc12", 2.23),
    ("Fc1ccc(Nc2nccc(-c3c(-c4ccc(C(F)(F)F)cc4)nn4ncccc34)n2)cc1F", 1.35),
    ("COc1cc(Nc2ncc(-c3ccccc3)o2)cc(OC)c1", 2.4),
]

Now look at this entry.
Which inhibition value belongs to "Cc1ccc(-c2cc3c(NC(=O)C4CC4)ncnc3o2)cc1" ? 1.78

###

# Measurement Target: Tyrosine-protein kinase JAK3 (Homo sapiens);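 note: values reported are mean percent inhibition of JAK3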
# Sequence (whole entry): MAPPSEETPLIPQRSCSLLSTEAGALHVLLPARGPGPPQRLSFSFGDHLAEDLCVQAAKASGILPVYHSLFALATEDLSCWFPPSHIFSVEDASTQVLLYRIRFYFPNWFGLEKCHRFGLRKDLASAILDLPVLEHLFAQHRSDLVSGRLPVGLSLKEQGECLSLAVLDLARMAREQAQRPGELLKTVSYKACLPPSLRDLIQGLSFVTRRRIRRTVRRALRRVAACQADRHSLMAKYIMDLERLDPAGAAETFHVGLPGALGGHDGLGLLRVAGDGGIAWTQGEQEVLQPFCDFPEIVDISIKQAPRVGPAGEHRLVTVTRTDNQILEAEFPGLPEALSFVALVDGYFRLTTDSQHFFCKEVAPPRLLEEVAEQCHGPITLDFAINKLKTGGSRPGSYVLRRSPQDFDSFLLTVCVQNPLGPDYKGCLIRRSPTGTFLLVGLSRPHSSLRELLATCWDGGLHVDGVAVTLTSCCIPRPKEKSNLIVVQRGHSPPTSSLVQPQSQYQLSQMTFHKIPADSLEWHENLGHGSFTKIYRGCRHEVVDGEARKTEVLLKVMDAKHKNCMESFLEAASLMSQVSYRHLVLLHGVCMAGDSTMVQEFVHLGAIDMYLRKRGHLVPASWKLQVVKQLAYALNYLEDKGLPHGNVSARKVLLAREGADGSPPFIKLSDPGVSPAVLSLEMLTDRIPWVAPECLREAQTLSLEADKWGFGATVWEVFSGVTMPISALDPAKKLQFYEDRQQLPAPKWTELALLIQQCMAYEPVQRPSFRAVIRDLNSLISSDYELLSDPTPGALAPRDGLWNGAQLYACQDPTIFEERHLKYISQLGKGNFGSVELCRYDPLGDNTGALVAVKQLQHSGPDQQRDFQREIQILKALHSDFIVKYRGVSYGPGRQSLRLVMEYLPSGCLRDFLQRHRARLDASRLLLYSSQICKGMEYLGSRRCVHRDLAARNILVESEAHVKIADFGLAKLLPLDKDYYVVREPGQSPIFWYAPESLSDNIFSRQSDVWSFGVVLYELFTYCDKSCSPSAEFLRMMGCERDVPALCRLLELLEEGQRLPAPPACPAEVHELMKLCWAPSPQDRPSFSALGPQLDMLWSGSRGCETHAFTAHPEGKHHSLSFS
# Cond: at 0.1 µM
Outcome Measure: inhibition (%)
// note: answer is a bare numeric in %

Past entries and their recorded results:
# Test Smiles, Measurement Target, inhibition [%]
records = [
    ("Cn1c(-c2nonc2N)nc2cnccc21", "Tyrosine-protein kinase JAK3 (Homo sapiens)", -1.06),
    ("NC(=O)c1ccc2c(-c3ccnc(NCCCO)n3)c(-c3ccc(F)cc3)nn2c1", "Tyrosine-protein kinase JAK3 (Homo sapiens)", -1.31),
]

Which inhibition value belongs to "CS(=O)(=O)CCNCc1ccc(-c2ccc3ncnc(Nc4ccc(OCc5ccccc5)cc4)c3c2)o1" ? -2

Which inhibition value belongs to "Cc1cc(O)cc(C)c1/C=C/c1cncc(C(=O)OC(C)(C)C)c1" ? 0.72
